All figures here come from ChEMBL document CHEMBL3425429.

The following compounds each carry a recorded IC50 for Proto-oncogene tyrosine-protein kinase Src (Homo sapiens).
Write it as a number; the unit nM goes unstated.

These solved cases illustrate the format of a correct answer.
smiles record: CCn1nc(C#Cc2cc(C(=O)Nc3ccc(CN4CCN(C)CC4)c(C(F)(F)F)c3)ccc2C)c2c(N)ncnc21
system: Proto-oncogene tyrosine-protein kinase Src (Homo sapiens)
Sequence (P12931 2-536 limits assumed): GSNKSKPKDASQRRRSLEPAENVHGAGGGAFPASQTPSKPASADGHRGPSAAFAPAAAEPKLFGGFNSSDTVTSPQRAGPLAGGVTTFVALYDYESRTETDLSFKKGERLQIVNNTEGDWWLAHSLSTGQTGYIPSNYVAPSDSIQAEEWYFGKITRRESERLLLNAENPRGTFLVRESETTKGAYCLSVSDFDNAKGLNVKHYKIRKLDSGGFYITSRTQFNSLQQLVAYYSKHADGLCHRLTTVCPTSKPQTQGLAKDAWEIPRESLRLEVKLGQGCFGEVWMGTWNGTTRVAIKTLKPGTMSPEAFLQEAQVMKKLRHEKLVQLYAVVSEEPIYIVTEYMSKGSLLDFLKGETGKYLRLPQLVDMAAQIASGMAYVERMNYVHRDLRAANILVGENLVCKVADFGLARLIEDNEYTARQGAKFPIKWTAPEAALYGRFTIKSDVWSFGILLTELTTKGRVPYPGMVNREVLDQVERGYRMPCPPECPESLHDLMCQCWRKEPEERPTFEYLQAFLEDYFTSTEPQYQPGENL
IC50 [nM]: 0.9

smiles record: Cc1ccc(C(=O)Nc2ccc(CN3CCOCC3)c(C(F)(F)F)c2)cc1C#Cc1nn(C(C)C)c2ncnc(N)c12
system: Proto-oncogene tyrosine-protein kinase Src (Homo sapiens)
IC50 [nM]: 21

smiles record: Cc1ccc(C(=O)Nc2ccc(CN3CCN(C)CC3)c(Br)c2)cc1C#Cc1nn(C(C)C)c2ncnc(N)c12
system: Proto-oncogene tyrosine-protein kinase Src (Homo sapiens)
IC50 [nM]: 1

smiles record: CCN1CCN(Cc2ccc(NC(=O)c3ccc(C)c(C#Cc4nn(C(C)C)c5ncnc(N)c45)c3)cc2C(F)(F)F)CC1
system: Proto-oncogene tyrosine-protein kinase Src (Homo sapiens)
IC50 [nM]: 2

Q) Query (compound): `Cc1ccc(C(=O)Nc2ccc(CN3CCN(C)CC3)c(C(F)(F)F)c2)cc1C#Cc1nn(C2CCNCC2)c2ncnc(N)c12` ; field requested: IC50
A) 12

Q) Quick one: IC50 of `Cc1ccc(C(=O)Nc2ccc(CN3CCN(CCO)CC3)c(C(F)(F)F)c2)cc1C#Cc1nn(C(C)C)c2ncnc(N)c12` ?
A) 4

Q) Can you share its IC50? I mean this compound: `CCn1nc(C#Cc2cc(C(=O)Nc3ccc(CN4CCN(C)CC4)c(C(F)(F)F)c3)ccc2C(C)C)c2c(N)ncnc21`
A) 1410

Q) Record request: IC50 value, item `Cc1ccc(C(=O)Nc2ccc(CN3CCN(C)CC3)c(Cl)c2)cc1C#Cc1nn(C(C)C)c2ncnc(N)c12`
A) 2

Q) If you can, please state the reported IC50 value of `Cc1ccc(C(=O)Nc2ccc(CN3CCN(C)CC3)c(C(F)(F)F)c2)cc1C#Cc1nn(C(C)C)c2ncnc(N)c12` .
A) 2
